Hello, the source for this data is patent US20090291081A1, in case you need it.

Listing of entries alongside the reported IL-1β IC50.
# ASSAY SYSTEM: human IL-1β (human, UniProt P01584 117-269)
# PROTOCOL DETAILS: cell-based or functional assay
READOUT KIND: IL-1β IC50

INSERT INTO assay_data (binder, readout_kind, observed_value) VALUES
  ('ABT2-108-620x/ABT1-95-15 huIgG1/K wt (bispecific antibody, V domains shown) VH: EVQLLESGGGLVQPGGSLRLSCAASGFTFAEESWMWVRQAPGKGLEWVSRIGQDGKNTYYREDVKGRFTISRDNSKNTLYLQMNSLRAEDTAVYYCAKYTGRIMGHHLFDYWGQGTLVTVSS VL: DIQMTQSPSSLSASVGDRVTITCRASQPIVRNLRWYQQKPGKAPKLLIYSSSYLEPGVPSRFSGSGSGTDFTLTISSLQPEDFATYHCQQGYRWPVTFGQGTKVEIKR', 'IL-1β IC50', '0.04 nM'),
  ('ABT2-108-620x/ABT1-122-750M hu IgG1 wt (bispecific antibody, V domains shown) VH: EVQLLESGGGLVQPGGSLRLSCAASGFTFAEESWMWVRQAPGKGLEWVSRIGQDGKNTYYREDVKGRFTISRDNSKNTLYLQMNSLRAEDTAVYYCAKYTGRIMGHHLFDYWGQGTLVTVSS VL: DIQMTQSPSSLSASVGDRVTITCSASQHIWTEMSWYQQKPGKAPKLLIYGSASRQKGVPSRFSGSGSGTDFTLTISSLQPEDFATYYCKQFAYFPNTFGQGTKVEIKR', 'IL-1β IC50', '0.00555 nM'),
  ('ABT2-65-8/ABT1-122 hu IgG1/K wt (bispecific antibody, V domains shown) VH: EVQLLESGGGLVQPGGSLRLSCAASGFTFEDYQMGWVRQAPGKGLEWVSSISAMGNRTYYADSVKGRFTISRDDSKNTLYLQMNSLRAEDTAVYYCAQNLVRMDSRRWMFDYWGQGTLVTVSS VL: DIQMTQSPSSLSASVGDRVTITCRASQPIWTELNWYQQKPGKAPKLLIYGSSSLQSGVPRFSGSGSGTDFTLTISSLQPEDFATYYCQQFAYFPATFGQGTKVEIKR', 'IL-1β IC50', '2.7 nM');
